MEASUREMENT DESCRIPTION: NCI Yeast Anticancer Drug Screen. Data for the rad50 strain (AID 155);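 further: 0% = growth of vehicle-only cultures of the same strain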
CONDITIONS: S. cerevisiae rad50 strain growth inhibition; at 50.0 µM; hits give high values
About 79,000 compounds went through this panel and 15% of them were active in at least one assay; those are over-represented in the sample as a whole.
MEASURED ATTRIBUTE: growth inhibition (%)
Numeric only. Scale: %

Sample records with growth inhibition:
COMPOUND	growth inhibition, %
O=C(Cc1ccccc1)NS(=O)(=O)c1ccccc1	5.15
CCOC(=N)Cc1ccccc1	3.7
Cn1c(=O)c2c3ccccc3c(C(=O)c3ccccc3)n2c2ccccc21	38.4
Cc1ccc(NC(=O)OC/C=C/c2ccccc2)cc1NC(=O)OC/C=C/c1ccccc1	17.9
COc1ccc([N+](=O)[O-])cc1N=NN(C)C	-1.9

[ask] Entry under review: "O=C1CCCc2c1cc1c3c(cccc23)CC1" . Reported growth inhibition?
[reply] -9.9

[ask] Entry under review: "COc1ccc(/C=C2\CCC/C(=C\c3ccc(O)c(CN4CCCCC4)c3)C2=O)cc1" . Reported growth inhibition?
[reply] 89.2

[ask] Entry under review: "Cc1ccc(Cl)cc1NC(=O)Nc1ccc(Cl)c(Cl)c1" . Reported growth inhibition?
[reply] -13.1

[ask] Entry under review: CC12CCC(O)CC1=CCC1C2CCC2(C)C(C(=O)O)=CCC12 (stereo unspecified) . Reported growth inhibition?
[reply] 1.3

[ask] Entry under review: CC1(C)OC2C(=O)O[C@H](CO)C2O1 (stereo partly specified) . Reported growth inhibition?
[reply] -2.7

[ask] Entry under review: "O=C(O)C/C=C/CC(=O)O" . Reported growth inhibition?
[reply] -2.25

[ask] Entry under review: "CCC(=O)NC1CCCCC1" . Reported growth inhibition?
[reply] 8.6

[ask] Entry under review: "O=NN(CCF)C(=O)N[C@H]1CCCC[C@H]1O" . Reported growth inhibition?
[reply] -15.7

[ask] Entry under review: O=c1cnn(C2OC(CO)C(O)C2O)c(=S)[nH]1 (stereo unspecified) . Reported growth inhibition?
[reply] -4.45

[ask] Entry under review: "O=C(Nc1cccc(C(=O)Nc2ccc3cc(S(=O)(=O)O)cc(S(=O)(=O)O)c3c2)c1)Nc1cccc(C(=O)Nc2ccc3cc(S(=O)(=O)O)cc(S(=O)(=O)O)c3c2)c1" . Reported growth inhibition?
[reply] 6.8

[ask] Entry under review: CC(=O)N1C(Nc2ccccn2)CCN1c1ccccc1 (stereo unspecified) . Reported growth inhibition?
[reply] -30.9

[ask] Entry under review: "CN(C)c1ccc(/C=C2\CCOC2=O)cc1" . Reported growth inhibition?
[reply] 38.1
